# Assay target: PCSK9 (Homo sapiens (Human))
# Assay info: PCSK9 Alexa FRET Plus assay (displacement of AlexaFluor647 tagged cyclic peptide Reagent B)
# Assay type: binding
# Measurement context: Alexa FRET Plus, 0.5 nM PCSK9, 960 nM AF cyclic peptide Reagent B; read-out: IC50
pIC50: −log10 of the molar value. Starred links: 1 amine or outer side, 2 acyl side, 3 side chain; linkers in the order of their positions; H or OH if unused. Positions of bridges follow the written chain, without caps; N, C: chain ends. Non-standard residues stand in square brackets, D forms with d. Residues, ends and D or L forms follow the SMILES beside them. NHCH2C6H4(p)CH2CH2NH = c1cc(CN[*:1])ccc1CCN[*:2]; Trp(5-F) = N[C@@H](Cc1c[nH]c2ccc(F)cc12)C(=O)O; Pro(cis-4-F) = O=C(O)[C@@H]1C[C@H](F)CN1; αMeP = C[C@@]1(C(=O)O)CCCN1

Compound	Assay target	pIC50
COc1ccc(C[C@@H]2NC(=O)[C@H]([C@@H](C)O)NC(=O)[C@@H]3C[C@H](F)CN3C(=O)[C@H](Cc3c[nH]c4ccc(F)cc34)NC(=O)[C@H](Cc3c[nH]c4ccc(F)cc34)NC(=O)[C@@H](C)NC(=O)[C@H](CCCCN)NC(=O)[C@@H](NC(C)=O)CC(=O)NCc3ccc(cc3)CCNC(=O)[C@]3(C)CCCN3C2=O)cc1 [Compound 095] (Ac-DK[dA][Trp(5-F)][Trp(5-F)][Pro(cis-4-F)]TY(Me)[αMeP]; linker 1-C via NHCH2C6H4(p)CH2CH2NH)	PCSK9 (Homo sapiens (Human))	5.30 to 6.30

* * *

# Assay target: PCSK9 (Homo sapiens (Human), UniProt Q8NBP7)
# Sequence (Q8NBP7 153-692): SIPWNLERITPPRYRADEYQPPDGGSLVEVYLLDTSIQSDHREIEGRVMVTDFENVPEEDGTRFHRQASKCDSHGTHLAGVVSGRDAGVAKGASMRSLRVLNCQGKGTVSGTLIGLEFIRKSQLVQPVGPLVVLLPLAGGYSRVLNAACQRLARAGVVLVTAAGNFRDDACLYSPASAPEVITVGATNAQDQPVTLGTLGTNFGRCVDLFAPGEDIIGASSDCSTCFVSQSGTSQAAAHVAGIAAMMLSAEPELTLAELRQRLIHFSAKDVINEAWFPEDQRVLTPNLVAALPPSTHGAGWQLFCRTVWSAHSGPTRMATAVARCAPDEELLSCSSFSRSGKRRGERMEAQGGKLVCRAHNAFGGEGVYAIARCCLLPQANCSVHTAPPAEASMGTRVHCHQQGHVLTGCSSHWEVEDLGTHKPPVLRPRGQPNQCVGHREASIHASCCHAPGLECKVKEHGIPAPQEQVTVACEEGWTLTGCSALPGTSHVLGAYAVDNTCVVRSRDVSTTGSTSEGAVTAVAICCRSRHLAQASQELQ
# Assay info: PCSK9 Alexa FRET Plus assay (displacement of AlexaFluor647 tagged cyclic peptide Reagent B)
# Assay type: binding
# Measurement context: Alexa FRET Plus, 0.5 nM PCSK9, 960 nM AF cyclic peptide Reagent B; read-out: IC50
pIC50: −log10 of the molar value. Starred links: 1 amine or outer side, 2 acyl side, 3 side chain; linkers in the order of their positions; H or OH if unused. Positions of bridges follow the written chain, without caps; N, C: chain ends. Non-standard residues stand in square brackets, D forms with d. Residues, ends and D or L forms follow the SMILES beside them. *: point of attachment. Ala(imidazol-2-yl) = N[C@@H](Cc1ncc[nH]1)C(=O)O; Trp(5-OH) = N[C@@H](Cc1c[nH]c2ccc(O)cc12)C(=O)O; Trp(5-F) = N[C@@H](Cc1c[nH]c2ccc(F)cc12)C(=O)O; Phe(4-CH2NH2) = NCc1ccc(C[C@H](N)C(=O)O)cc1; X3 = O=C(CCSCc1cc(F)cc(CSCCN[*:1])c1)[*:2]; Heptanedioyl = O=C(CCCCCC(=O)[*:2])[*:1]; Pro(cis-4-F) = O=C(O)[C@@H]1C[C@H](F)CN1; X4 = O=C(CCSCc1cccc(CSCCN[*:1])c1)[*:2]; mXylylene = c1cc(C[*:1])cc(C[*:2])c1; AEF = NCCOc1ccc(C[C@H](N)C(=O)O)cc1; NMeY = CN[C@@H](Cc1ccc(O)cc1)C(=O)O; Lys(Me2) = CN(C)CCCC[C@H](N)C(=O)O; aThr = C[C@H](O)[C@H](N)C(=O)O; NMeL = CN[C@@H](CC(C)C)C(=O)O; αMeP = C[C@@]1(C(=O)O)CCCN1; 3Amb = NCc1cccc(C(=O)O)c1; Glycolyl = O=C(CO)*; Mpa = O=C(O)CCS

Compound	pIC50
C[C@@]12CCCN1C(=O)[C@H](Cc1ccc(O)cc1)NC(=O)[C@H](Cc1cnc[nH]1)NC(=O)[C@H](CC(=O)O)NC(=O)[C@H](Cc1c[nH]c3ccc(O)cc13)NC(=O)[C@H](Cc1c[nH]c3ccc(F)cc13)NC(=O)CNC(=O)[C@H](CCCCN)NC(=O)CCSCc1cccc(c1)CSC[C@@H](C(N)=O)NC2=O [Compound 399] ([Mpa]KG[Trp(5-F)][Trp(5-OH)]DHY[αMeP]C-NH2; linker 1-10 via mXylylene)	6.30 to 7.00
CCCCCCCCCCCCCCCC(=O)N[C@@H](CCC(=O)NCCOCCOCCC(=O)NCCOCCOCC(=O)NCCCC[C@H](NC(=O)COCCOCCOCCOCCOCCOCCOCCOCCOCCOCCOCCOCCNC(=O)[C@@H]1CSCc2cccc(c2)CSCCC(=O)N[C@@H](CCCCN)C(=O)N[C@H](C)C(=O)N[C@@H](Cc2c[nH]c3ccc(F)cc23)C(=O)N[C@@H](Cc2c[nH]c3ccc(F)cc23)C(=O)N[C@@H](CC(=O)O)C(=O)N[C@@H](Cc2cnc[nH]2)C(=O)N[C@@H](Cc2ccc(O)cc2)C(=O)N2CCC[C@@]2(C)C(=O)N1)C(N)=O)C(=O)O [Compound 474]	5.30 to 6.30
COc1ccc(C[C@@H]2NC(=O)[C@H]([C@@H](C)O)NC(=O)[C@@H]3C[C@H](F)CN3C(=O)[C@H](Cc3c[nH]c4ccc(F)cc34)NC(=O)[C@H](Cc3c[nH]c4ccc(F)cc34)NC(=O)[C@@H](C)NC(=O)[C@H](CCCCN)NC(=O)[C@@H](NC(=O)CO)CC(=O)NCCOc3ccc(cc3)C[C@@H](C(N)=O)NC(=O)[C@]3(C)CCCN3C2=O)cc1 [Compound 116] (Glycolyl-DK[dA][Trp(5-F)][Trp(5-F)][Pro(cis-4-F)]TY(Me)[αMeP][AEF]-NH2; lactam 1-10)	5.30 to 6.30
COc1ccc(C[C@@H]2NC(=O)[C@@H](CC(C)C)NC(=O)[C@H]([C@@H](C)OC)NC(=O)CCSCc3cccc(c3)CSC[C@@H](C(N)=O)NC(=O)[C@]3(C)CCCN3C(=O)[C@H](Cc3ccc(OC)cc3)NC(=O)[C@H]([C@@H](C)OC)NC(=O)[C@H](CC(C)C)N(C)C(=O)[C@H](Cc3ccc(OC)cc3)NC2=O)cc1 [Compound 035] ([Mpa]T(Me)[dL]Y(Me)Y(Me)[NMeL]T(Me)Y(Me)[αMeP]C-NH2; linker 1-10 via mXylylene)	7.00 to 10.00
C[C@@]12CCCN1C(=O)[C@H](Cc1ccc(O)cc1)NC(=O)CN1C(=O)[C@@H](CCc3ccccc31)NC(=O)[C@H](Cc1c[nH]c3ccc(F)cc13)NC(=O)[C@H](Cc1c[nH]c3ccc(F)cc13)NC(=O)CNC(=O)[C@H](CCCCN)NC(=O)CCSCc1cccc(c1)CSC[C@@H](C(N)=O)NC2=O [Compound 109]	6.30 to 7.00
C[C@H]1NC(=O)[C@H](CCCCN)NC(=O)CCSCc2cccc(c2)CSCCNC(=O)[C@]2(C)CCCN2C(=O)[C@H](Cc2ccc(O)cc2)N(C)C(=O)[C@H](Cc2c[nH]cn2)NC(=O)[C@H](CC(=O)O)NC(=O)[C@H](Cc2c[nH]c3ccc(F)cc23)NC(=O)[C@H](Cc2c[nH]c3ccc(F)cc23)NC1=O [Compound 277] (cyclo(DH[NMeY][αMeP][X4]K[dA][Trp(5-F)][Trp(5-F)]))	6.30 to 7.00
C[C@H]1NC(=O)[C@H](CCCCN)NC(=O)CCSCc2cccc(c2)CSC[C@@H](C(N)=O)NC(=O)[C@]2(C)CCCN2C(=O)[C@H](Cc2ccc(O)cc2)NC(=O)c2cccc(c2)CNC(=O)[C@H](Cc2c[nH]c3ccc(F)cc23)NC(=O)[C@H](Cc2c[nH]c3ccc(F)cc23)NC1=O [Compound 089] ([Mpa]K[dA][Trp(5-F)][Trp(5-F)][3Amb]Y[αMeP]C-NH2; linker 1-9 via mXylylene)	7.00 to 10.00
NC(=O)[C@@H]1Cc2ccc(cc2)CNC(=O)CCCCCC(=O)NCC(=O)N[C@@H](Cc2c[nH]c3ccc(F)cc23)C(=O)N[C@@H](Cc2c[nH]c3ccc(F)cc23)C(=O)N[C@@H](CC(=O)O)C(=O)N[C@@H](Cc2cnc[nH]2)C(=O)N[C@@H](Cc2ccc(O)cc2)C(=O)N1 [Compound 455] (G[Trp(5-F)][Trp(5-F)]DHY[Phe(4-CH2NH2)]-NH2; linker N-7 via Heptanedioyl)	5.30 to 6.30
COc1ccc(C[C@@H]2NC(=O)[C@H](Cc3ncc[nH]3)NC(=O)[C@H](CC(=O)O)NC(=O)[C@H](Cc3c[nH]c4ccc(F)cc34)NC(=O)[C@H](Cc3c[nH]c4ccc(F)cc34)NC(=O)[C@@H](C)NC(=O)[C@H](CCCCN(C)C)NC(=O)CCSCc3cc(F)cc(c3)CSCCNC(=O)[C@]3(C)CCCN3C2=O)cc1 [Compound 466] (cyclo(D[Ala(imidazol-2-yl)]Y(Me)[αMeP][X3][Lys(Me2)][dA][Trp(5-F)][Trp(5-F)]))	5.30 to 6.30
CO[C@@H](C)[C@@H]1NC(=O)CCSCc2cccc(c2)CSC[C@@H](C(N)=O)NC(=O)[C@]2(C)CCCN2C(=O)[C@H](Cc2ccc(O)cc2)NC(=O)[C@H](Cc2cnc[nH]2)NC(=O)[C@H](CC(=O)O)NC(=O)[C@H](Cc2c[nH]c3ccc(F)cc23)NC(=O)[C@H](Cc2c[nH]c3ccc(F)cc23)NC(=O)CNC1=O [Compound 377] ([Mpa][aThr](Me)G[Trp(5-F)][Trp(5-F)]DHY[αMeP]C-NH2; linker 1-10 via mXylylene)	6.30 to 7.00
